Every entry's value here was drawn from patent US20160319277A1.

System: HEK-CMV-Luc2-Hygro cells
protocol-text: High-throughput genome-wide siRNA screen and validation screen for luciferase expression
Assay type: cell-based, human
measurement-conditions: Table 4; primary screen, 72 h, negative control = 100%
Mark Met for reported per cell luciferase yield (%) of 200% or greater; mark Not met for anything smaller.

substance: 150 (CGCUUUAACUGGAAGCUCUTT; chemistry not given here; listed as Homo sapiens) [compound 150]
discrete-label: Not met
//
substance: 101 (GUUCAUCCAUAAGUACAUUTT; chemistry not given here; listed as Homo sapiens) [compound 101]
discrete-label: Met
//
substance: 131 (GGAGAAAGAAUCAACGGAATT; chemistry not given here; listed as Homo sapiens) [compound 131]
discrete-label: Met
//
substance: 210 (CAAUGGAACAAUCAAAGUUTT; chemistry not given here; listed as Homo sapiens) [compound 210]
discrete-label: Not met
//
substance: 115 (AGAUACUGGUAUUGCUCGATT; chemistry not given here; listed as Homo sapiens) [compound 115]
discrete-label: Met
//
substance: 104 (GGCGAAUGCUCCUGACUAATT; chemistry not given here; listed as Homo sapiens) [compound 104]
discrete-label: Not met

* * *

Tested on: HEK-CMV-Luc2-Hygro cells
protocol-text: High-throughput genome-wide siRNA screen and validation screen for luciferase expression
Type: cell-based, human
measurement-conditions: Table 4; primary screen, 72 h, negative control = 100%
Experimental: The Silencer Select™ Human genome siRNA library (Ambion), which targets 21,585 human genes with 3 siRNAs per gene, was used for screening. Each siRNA is arrayed in an individual well (Corning 3570, 384 well, white, solid bottom plates). […] All plates were incubated at room temperature for 20 minutes to stabilize the luminescent signal and the signal was then measured with PerkinElmer Envision 2104 Multilabel™ plate reader. […]
measured-endpoint: per cell luciferase yield (%)

substance: 203 (GAUUACUUCUUGACUAUCATT; chemistry not given here; listed as Homo sapiens) [compound 203]
measured-endpoint: per cell luciferase yield (%)
units: %
endpoint-value: 150.843

substance: 180 (CCACCCUACUAUGUACUGUTT; chemistry not given here; listed as Homo sapiens) [compound 180]
measured-endpoint: per cell luciferase yield (%)
units: %
endpoint-value: 185.763

substance: 182 (CAGUUACUUUCAAAACUCUTT; chemistry not given here; listed as Homo sapiens) [compound 182]
measured-endpoint: per cell luciferase yield (%)
units: %
endpoint-value: 202.960

substance: 102 (AGAUCUUUGUCAAGGUGUATT; chemistry not given here; listed as Homo sapiens) [compound 102]
measured-endpoint: per cell luciferase yield (%)
units: %
endpoint-value: 153.438

substance: 174 (GCAAUGCUUGCAAAACUCATT; chemistry not given here; listed as Homo sapiens) [compound 174]
measured-endpoint: per cell luciferase yield (%)
units: %
endpoint-value: 189.252

substance: 113 (GCAUCAGCUCACAACAAAATT; chemistry not given here; listed as Homo sapiens) [compound 113]
measured-endpoint: per cell luciferase yield (%)
units: %
endpoint-value: 409.361

substance: 105 (GCGCAAGCUUAAGAACUUUTT; chemistry not given here; listed as Homo sapiens) [compound 105]
measured-endpoint: per cell luciferase yield (%)
units: %
endpoint-value: 170.349

substance: 145 (CCAGUUCGACCUGAACAAATT; chemistry not given here; listed as Homo sapiens) [compound 145]
measured-endpoint: per cell luciferase yield (%)
units: %
endpoint-value: 176.019

substance: 202 (GGAUGACGAGCUGAACUUUTT; chemistry not given here; listed as Homo sapiens) [compound 202]
measured-endpoint: per cell luciferase yield (%)
units: %
endpoint-value: 140.103

substance: 109 (GCAUCGAGGAGACUAACAATT; chemistry not given here; listed as Homo sapiens) [compound 109]
measured-endpoint: per cell luciferase yield (%)
units: %
endpoint-value: 275.068

substance: 132 (GGACGGAAGCGAAAAUCGATT; chemistry not given here; listed as Homo sapiens) [compound 132]
measured-endpoint: per cell luciferase yield (%)
units: %
endpoint-value: 216.209

substance: 126 (GGUGCUCUCGGUUGCACAATT; chemistry not given here; listed as Homo sapiens) [compound 126]
measured-endpoint: per cell luciferase yield (%)
units: %
endpoint-value: 187.362

substance: 168 (GCUUCCUCUUGGACCUCAATT; chemistry not given here; listed as Homo sapiens) [compound 168]
measured-endpoint: per cell luciferase yield (%)
units: %
endpoint-value: 185.175

substance: 157 (GAACAGCUGGGAACCUUCATT; chemistry not given here; listed as Homo sapiens) [compound 157]
measured-endpoint: per cell luciferase yield (%)
units: %
endpoint-value: 254.007

substance: 159 (GGAGUUCUUUGAUGAGAAATT; chemistry not given here; listed as Homo sapiens) [compound 159]
measured-endpoint: per cell luciferase yield (%)
units: %
endpoint-value: 157.243

substance: 98 (CAACGGGACUAUUAUGAUATT; chemistry not given here; listed as Homo sapiens) [compound 98]
measured-endpoint: per cell luciferase yield (%)
units: %
endpoint-value: 163.496

substance: 191 (GCCCACUAUUCUCAGCUCATT; chemistry not given here; listed as Homo sapiens) [compound 191]
measured-endpoint: per cell luciferase yield (%)
units: %
endpoint-value: 214.156

substance: 123 (GGUGUAAUAAUGUCCUUUATT; chemistry not given here; listed as Homo sapiens) [compound 123]
measured-endpoint: per cell luciferase yield (%)
units: %
endpoint-value: 188.094

substance: 114 (GUCCUAUCACCGUAUCUUATT; chemistry not given here; listed as Homo sapiens) [compound 114]
measured-endpoint: per cell luciferase yield (%)
units: %
endpoint-value: 266.627

substance: 181 (GCUAAGUCUUUUCCACAGUTT; chemistry not given here; listed as Homo sapiens) [compound 181]
measured-endpoint: per cell luciferase yield (%)
units: %
endpoint-value: 155.385

substance: 120 (GGAUCAUGCUAAAAGGAGATT; chemistry not given here; listed as Homo sapiens) [compound 120]
measured-endpoint: per cell luciferase yield (%)
units: %
endpoint-value: 311.516

substance: 171 (CCCUGUUCAUUAUAAGUCUTT; chemistry not given here; listed as Homo sapiens) [compound 171]
measured-endpoint: per cell luciferase yield (%)
units: %
endpoint-value: 272.683

substance: 116 (UGGUCUCAAUGACAGUAGATT; chemistry not given here; listed as Homo sapiens) [compound 116]
measured-endpoint: per cell luciferase yield (%)
units: %
endpoint-value: 370.824

substance: 211 (GGAUUACAGAAACUCCUAUTT; chemistry not given here; listed as Homo sapiens) [compound 211]
measured-endpoint: per cell luciferase yield (%)
units: %
endpoint-value: 188.258

substance: 138 (CCCUCCUACUAUUACCCGUTT; chemistry not given here; listed as Homo sapiens) [compound 138]
measured-endpoint: per cell luciferase yield (%)
units: %
endpoint-value: 162.999

substance: 143 (GCAAAGAUAGCGAGAAAUATT; chemistry not given here; listed as Homo sapiens) [compound 143]
measured-endpoint: per cell luciferase yield (%)
units: %
endpoint-value: 193.846
